The measurements presented in this section are drawn from PubChem BioAssay AID1963845.

System: 429239-143-T-J1-PDC complex spheroid viability
Assay: Anticancer human tumor 429239-143-T-J1-PDC patient-derived small cell lung carcinoma cell line growth inhibition [POLQ]; active means viability on the fitted dose curve at most 10% of control; inactive means the rest
Settings: second compound 0.316 µM; first compound 10 µM
Classes used: 1.0 (active), 0.0 (inactive)

CNCc1ccc(-c2[nH]c3cc(F)cc4c3c2CCNC4=O)cc1 + Nc1ccc(C#CCN(C(=O)Cc2ncc(C(F)(F)F)cc2C(F)(F)F)c2ccc(F)cc2)nn1	0.0
C#Cc1c(F)ccc2cc(O)cc(-c3ncc4c(N5CC6CCC(C5)N6)nc(OCC56CCCN5CC(F)C6)nc4c3F)c12 (stereo not given) + COC1C(OC(N)=O)C(O)C(Oc2ccc3c(O)c(NC(=O)c4ccc(O)c(CC=C(C)C)c4)c(=O)oc3c2C)OC1(C)C	0.0
CCc1cc2c(N3CCc4c(cc(Cn5ccnc5)cc4-c4cn(C)nc4C(F)(F)F)C3=O)ccnc2c(OC)n1 + COC1C(OC(N)=O)C(O)C(Oc2ccc3c(O)c(NC(=O)c4ccc(O)c(CC=C(C)C)c4)c(=O)oc3c2C)OC1(C)C	0.0
COc1cc2cc(C(=O)CCC(=O)O)sc2cc1OC + Cc1cccc(N(C)C(=O)C2C(O)CCN2c2nc(C)cc(C(F)(F)F)c2C#N)c1	0.0
CC1COCCN1c1cc(C2(O)CC3CCC(C2)O3)c2cnn(-c3ccn[nH]3)c2n1 (stereo not given) + Cc1cccc(N(C)C(=O)C2C(O)CCN2c2nc(C)cc(C(F)(F)F)c2C#N)c1	1.0

###

Test system: 429239-143-T-J1-PDC complex spheroid viability
Test: Anticancer human tumor 429239-143-T-J1-PDC cell line growth inhibition [POLQ]; active = viability on the fitted dose curve at most 10% of control; inactive = the rest;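 further: luminescence signal used as surrogate measure of viable cells; spheroids exposed to compounds for seven days before readout; 100% = DMSO vehicle control viability as luminescence relative to vehicle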
Settings: second compound 0.0316 µM; first compound 0.316 µM
Labels: TRUE for active, FALSE for inactive

C=CCn1c(=O)c2cnc(Nc3ccc(N4CCN(C)CC4)cc3)nc2n1-c1cccc(C(C)(C)O)n1 + Cc1cccc(N(C)C(=O)C2C(O)CCN2c2nc(C)cc(C(F)(F)F)c2C#N)c1	FALSE
CCc1c2c(nc3ccc(O)cc13)-c1cc3c(c(=O)n1C2)COC(=O)[C@]3(O)CC + Nc1ccc(C#CCN(C(=O)Cc2ncc(C(F)(F)F)cc2C(F)(F)F)c2ccc(F)cc2)nn1	TRUE
Nc1ccn(C2OC(CO)C(O)C2(F)F)c(=O)n1 (stereo not given) + Cc1cccc(N(C)C(=O)C2C(O)CCN2c2nc(C)cc(C(F)(F)F)c2C#N)c1	FALSE
COc1cccc2c1C(=O)c1c(O)c3c(c(O)c1C2=O)CC(O)(C(=O)CO)CC3OC1CC(N)C(O)C(C)O1 (stereo not given) + Nc1ccc(C#CCN(C(=O)Cc2ncc(C(F)(F)F)cc2C(F)(F)F)c2ccc(F)cc2)nn1	TRUE
Nc1ccn(C2OC(CO)C(O)C2(F)F)c(=O)n1 (stereo not given) + COC1C(OC(N)=O)C(O)C(Oc2ccc3c(O)c(NC(=O)c4ccc(O)c(CC=C(C)C)c4)c(=O)oc3c2C)OC1(C)C	FALSE

###

System: 429239-143-T-J1-PDC complex spheroid viability
Experiment: Anticancer human tumor 429239-143-T-J1-PDC cell line growth inhibition [POLQ]; active = viability on the fitted dose curve at most 10% of control; inactive = the rest;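 further: luminescence signal used as surrogate measure of viable cells; spheroids exposed to compounds for seven days before readout; 100% = DMSO vehicle control viability as luminescence relative to vehicle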
Conditions: second compound 3.16 µM; first compound 0.316 µM
Outcomes: Yes = active, No = inactive

CC1COCCN1c1cc(-c2ccnn2C)c2ccnc(-c3ccn[nH]3)c2n1 (stereo unspecified) + COC1C(OC(N)=O)C(O)C(Oc2ccc3c(O)c(NC(=O)c4ccc(O)c(CC=C(C)C)c4)c(=O)oc3c2C)OC1(C)C	No
CC1COCCN1c1cc(-c2ccnn2C)c2ccnc(-c3ccn[nH]3)c2n1 (stereo unspecified) + Cc1cccc(N(C)C(=O)C2C(O)CCN2c2nc(C)cc(C(F)(F)F)c2C#N)c1	No
CNCc1ccc(-c2[nH]c3cc(F)cc4c3c2CCNC4=O)cc1 + Cc1cccc(N(C)C(=O)C2C(O)CCN2c2nc(C)cc(C(F)(F)F)c2C#N)c1	No
CC(C)n1c(=O)n(C)c2cnc3cc(F)c(-c4ccc(OCCCN5CCCCC5)nc4)cc3c21 + Nc1ccc(C#CCN(C(=O)Cc2ncc(C(F)(F)F)cc2C(F)(F)F)c2ccc(F)cc2)nn1	No
CCc1c2c(nc3ccc(O)cc13)-c1cc3c(c(=O)n1C2)COC(=O)[C@]3(O)CC + Nc1ccc(C#CCN(C(=O)Cc2ncc(C(F)(F)F)cc2C(F)(F)F)c2ccc(F)cc2)nn1	Yes
C=CCn1c(=O)c2cnc(Nc3ccc(N4CCN(C)CC4)cc3)nc2n1-c1cccc(C(C)(C)O)n1 + COC1C(OC(N)=O)C(O)C(Oc2ccc3c(O)c(NC(=O)c4ccc(O)c(CC=C(C)C)c4)c(=O)oc3c2C)OC1(C)C	No
COc1cc2cc(C(=O)CCC(=O)O)sc2cc1OC + Cc1cccc(N(C)C(=O)C2C(O)CCN2c2nc(C)cc(C(F)(F)F)c2C#N)c1	No
CC1COCCN1c1cc(C2(O)CC3CCC(C2)O3)c2cnn(-c3ccn[nH]3)c2n1 (stereo unspecified) + COC1C(OC(N)=O)C(O)C(Oc2ccc3c(O)c(NC(=O)c4ccc(O)c(CC=C(C)C)c4)c(=O)oc3c2C)OC1(C)C	No
O=C(c1cc(Cc2n[nH]c(=O)c3ccccc23)ccc1F)N1CCN(C(=O)C2CC2)CC1 + Cc1cccc(N(C)C(=O)C2C(O)CCN2c2nc(C)cc(C(F)(F)F)c2C#N)c1	No
C#Cc1c(F)ccc2cc(O)cc(-c3ncc4c(N5CC6CCC(C5)N6)nc(OCC56CCCN5CC(F)C6)nc4c3F)c12 (stereo unspecified) + Nc1ccc(C#CCN(C(=O)Cc2ncc(C(F)(F)F)cc2C(F)(F)F)c2ccc(F)cc2)nn1	No
O=C(Nc1ccc(O)c(NS(=O)(=O)c2ccc(F)cc2)c1)c1ccc(-c2ccccc2)cc1 + Cc1cccc(N(C)C(=O)C2C(O)CCN2c2nc(C)cc(C(F)(F)F)c2C#N)c1	No
CC(C)n1c(=O)n(C)c2cnc3cc(F)c(-c4ccc(OCCCN5CCCCC5)nc4)cc3c21 + Cc1cccc(N(C)C(=O)C2C(O)CCN2c2nc(C)cc(C(F)(F)F)c2C#N)c1	No
CC1COCCN1c1cc(C2(S(C)(=N)=O)CC2)nc(-c2ccnc3[nH]ccc23)n1 (stereo unspecified) + COC1C(OC(N)=O)C(O)C(Oc2ccc3c(O)c(NC(=O)c4ccc(O)c(CC=C(C)C)c4)c(=O)oc3c2C)OC1(C)C	No
COc1ccc([C@@H](O)c2cc(-c3ncnc4cc(N5CCOCC5)ccc34)c(F)cc2Cl)nn1 + Cc1cccc(N(C)C(=O)C2C(O)CCN2c2nc(C)cc(C(F)(F)F)c2C#N)c1	No
COc1cccc(OCCCN)c1-c1cc(Nc2cnc(C#N)cn2)n[nH]1 + Cc1cccc(N(C)C(=O)C2C(O)CCN2c2nc(C)cc(C(F)(F)F)c2C#N)c1	No
O=C(Nc1ccc(O)c(NS(=O)(=O)c2ccc(F)cc2)c1)c1ccc(-c2ccccc2)cc1 + COC1C(OC(N)=O)C(O)C(Oc2ccc3c(O)c(NC(=O)c4ccc(O)c(CC=C(C)C)c4)c(=O)oc3c2C)OC1(C)C	No
Nc1ccn(C2OC(CO)C(O)C2(F)F)c(=O)n1 (stereo unspecified) + COC1C(OC(N)=O)C(O)C(Oc2ccc3c(O)c(NC(=O)c4ccc(O)c(CC=C(C)C)c4)c(=O)oc3c2C)OC1(C)C	No
COc1ccc([C@@H](O)c2cc(-c3ncnc4cc(N5CCOCC5)ccc34)c(F)cc2Cl)nn1 + COC1C(OC(N)=O)C(O)C(Oc2ccc3c(O)c(NC(=O)c4ccc(O)c(CC=C(C)C)c4)c(=O)oc3c2C)OC1(C)C	No
COc1cccc(OCCCN)c1-c1cc(Nc2cnc(C#N)cn2)n[nH]1 + Nc1ccc(C#CCN(C(=O)Cc2ncc(C(F)(F)F)cc2C(F)(F)F)c2ccc(F)cc2)nn1	No
O=C(c1cc(Cc2n[nH]c(=O)c3ccccc23)ccc1F)N1CCN(C(=O)C2CC2)CC1 + COC1C(OC(N)=O)C(O)C(Oc2ccc3c(O)c(NC(=O)c4ccc(O)c(CC=C(C)C)c4)c(=O)oc3c2C)OC1(C)C	No
CCc1cc2c(N3CCc4c(cc(Cn5ccnc5)cc4-c4cn(C)nc4C(F)(F)F)C3=O)cc(C)nc2c(OC)n1 + COC1C(OC(N)=O)C(O)C(Oc2ccc3c(O)c(NC(=O)c4ccc(O)c(CC=C(C)C)c4)c(=O)oc3c2C)OC1(C)C	No

###

Below: a set of entries, each annotated with reported viability, T/C.
Tested on: 429239-143-T-J1-PDC complex spheroid viability
Experiment: Anticancer human tumor 429239-143-T-J1-PDC cell line growth inhibition [POLQ];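 further: luminescence signal used as surrogate measure of viable cells; spheroids exposed to compounds for seven days before readout; 100% = DMSO vehicle control viability as luminescence relative to vehicle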
Conditions: second compound 0.316 µM; first compound 0.0316 µM; stronger effect = lower value
Procedure: Multicellular complex tumor spheroid response to Polymerase (POL) inhibitors (novobiocin, ART-558, RP6685) in combination with a variety of drugs and investigational agents in selected tumor cell lines The POL inhibitors (novobiocin, ART-558, and RP6685) were evaluated both individually and in combination with standard of care and investigational anticancer small molecules within a complex spheroid model of solid tumors. . […]
Reported property: viability, T/C (%)

COc1ccc([C@@H](O)c2cc(-c3ncnc4cc(N5CCOCC5)ccc34)c(F)cc2Cl)nn1 + Nc1ccc(C#CCN(C(=O)Cc2ncc(C(F)(F)F)cc2C(F)(F)F)c2ccc(F)cc2)nn1	107
CCc1c2c(nc3ccc(O)cc13)-c1cc3c(c(=O)n1C2)COC(=O)[C@]3(O)CC + Cc1cccc(N(C)C(=O)C2C(O)CCN2c2nc(C)cc(C(F)(F)F)c2C#N)c1	16.4
COc1cccc(OCCCN)c1-c1cc(Nc2cnc(C#N)cn2)n[nH]1 + Cc1cccc(N(C)C(=O)C2C(O)CCN2c2nc(C)cc(C(F)(F)F)c2C#N)c1	86.4
